tested on: SW-620; test: NCI tumour cell line growth inhibition, 48 h
Calls of active or inactive are those of the source. Cut-off read from the data, not from the text of the source: active = GI50 up to about 1.1 µM and inactive = higher.

molecule	system_name	GI50
Cc1cccc(NC(=O)c2cccc([N+](=O)[O-])c2O)c1C	SW-620	37.9 µM (inactive)
CCO/C=N\C1=C(C#N)SC2=N/C(=C\c3ccc(OC)cc3)C(=O)N21	SW-620	> 100 µM (inactive)
CCC1=NC(N/N=C/c2ccccc2O)=N/C1=C\c1ccccc1O	SW-620	7.5 µM (inactive)
Cn1cc(NC(=O)Nc2cc(C(=O)Nc3cc(C(=O)Nc4cc(S(=O)(=O)O)c5cc(S(=O)(=O)O)cc(S(=O)(=O)O)c5c4)n(C)c3)n(C)c2)cc1C(=O)Nc1cc(C(=O)Nc2cc(S(=O)(=O)O)c3cc(S(=O)(=O)O)cc(S(=O)(=O)O)c3c2)n(C)c1	SW-620	> 100 µM (inactive)
COc1cc2ccc(CC#N)cc2cc1OC	SW-620	> 100 µM (inactive)
CN(C)CC1CC/C(=C\c2ccc3c(c2)OCO3)C1=O (stereo unspecified)	SW-620	6.4 µM (inactive)
Cc1n[nH]c(=O)n1/N=C/c1c[nH]c2ccccc12	SW-620	> 100 µM (inactive)
c1ccc2sc(SCN(C3CCCCC3)C3CCCCC3)nc2c1	SW-620	> 100 µM (inactive)
O=C(O)c1cc2c(cc1CC(Cc1ccc3c(c1)CCCC3)C(=O)O)CCCC2 (stereo unspecified)	SW-620	> 100 µM (inactive)
CCCCCCCCCCCCN(CC(O)C(O)C(OC1OC(CO)C(O)C(O)C1O)C(O)CO)C(=O)CCCCCCCCCCC (stereo unspecified)	SW-620	19 µM (inactive)
CN(CC#N)C1CCCC[C@H]1O (stereo partly specified)	SW-620	> 90.4 µM (inactive)
